- protocol: Solubility screening of veldoreotide acetate (10 mg, incremental volumes of medium, USP definition)
- Assay type: physicochemical
- condition.set: 2% propylene glycol in olive oil (or cottonseed oil), 10 ml Slightly soluble (0.001 g/ml; 1 mg/ml), 10 mg in 2% Propylene glycol in olive oil (or cottonseed oil)
measured.parameter: solubility

Request: Report solubility for C[C@@H](O)[C@@H]1NC(=O)[C@H](CCCCN)NC(=O)[C@@H](Cc2c[nH]c3ccccc23)NC(=O)[C@H](Cc2c[nH]c3ccccc23)NC(=O)[C@H](Cc2ccccc2)NC(=O)CCCNC(=O)CCCN(CC(N)=O)C(=O)[C@H](Cc2ccccc2)NC1=O [Veldoreotide Acetate] please.
Response: > 1000 µg/mL

----------
- protocol: Solubility screening of veldoreotide acetate (10 mg, incremental volumes of medium, USP definition)
- Assay type: physicochemical
- condition.set: 0.1% TFA, 10 mg in 0.1% TFA; read-out: 0.5 ml Soluble (0.02 g/ml; 20 mg/ml)
measured.parameter: solubility

Request: Report solubility for C[C@@H](O)[C@@H]1NC(=O)[C@H](CCCCN)NC(=O)[C@@H](Cc2c[nH]c3ccccc23)NC(=O)[C@H](Cc2c[nH]c3ccccc23)NC(=O)[C@H](Cc2ccccc2)NC(=O)CCCNC(=O)CCCN(CC(N)=O)C(=O)[C@H](Cc2ccccc2)NC1=O [Veldoreotide Acetate] please.
Response: > 20 mg/mL

----------
- protocol: Quantitative assessment of veldoreotide acetate solubility by HPLC
- Format: physicochemical
- condition.set: 0.9% NaCl, pH 4.5; read-out: Solubility (g/liter) - HPLC
measured.parameter: solubility

Request: Report solubility for C[C@@H](O)[C@@H]1NC(=O)[C@H](CCCCN)NC(=O)[C@@H](Cc2c[nH]c3ccccc23)NC(=O)[C@H](Cc2c[nH]c3ccccc23)NC(=O)[C@H](Cc2ccccc2)NC(=O)CCCNC(=O)CCCN(CC(N)=O)C(=O)[C@H](Cc2ccccc2)NC1=O [Veldoreotide Acetate] please.
Response: 2.31 g/L

----------
- protocol: Solubility screening of veldoreotide acetate (10 mg, incremental volumes of medium, USP definition)
- Format: physicochemical
- condition.set: Acetate saline 100 mM, Mannitol 250 mM, pH 4.3, 10 ml Slightly soluble (0.001 g/ml; 1 mg/ml), 10 mg in Acetate saline 100 mM, Mannitol 250 mM (pH 4.3)
measured.parameter: solubility

Request: Report solubility for C[C@@H](O)[C@@H]1NC(=O)[C@H](CCCCN)NC(=O)[C@@H](Cc2c[nH]c3ccccc23)NC(=O)[C@H](Cc2c[nH]c3ccccc23)NC(=O)[C@H](Cc2ccccc2)NC(=O)CCCNC(=O)CCCN(CC(N)=O)C(=O)[C@H](Cc2ccccc2)NC1=O [Veldoreotide Acetate] please.
Response: > 1000 µg/mL

----------
- protocol: Solubility screening of veldoreotide acetate (10 mg, incremental volumes of medium, USP definition)
- Assay type: physicochemical
- condition.set: Ethanol (USP), 10 mg in Ethanol (USP); read-out: 1 ml Sparingly soluble (0.01 g/ml; 10 mg/ml)
- Excerpt: The solubility of veldoreotide acetate in aqueous media was screened by the following method. […] Following the results of the screening studies, several media were selected for verification studies based on quantitative assessment of the peptide concentration by HPLC (maximal solubility). […]
measured.parameter: solubility

Request: Report solubility for C[C@@H](O)[C@@H]1NC(=O)[C@H](CCCCN)NC(=O)[C@@H](Cc2c[nH]c3ccccc23)NC(=O)[C@H](Cc2c[nH]c3ccccc23)NC(=O)[C@H](Cc2ccccc2)NC(=O)CCCNC(=O)CCCN(CC(N)=O)C(=O)[C@H](Cc2ccccc2)NC1=O [Veldoreotide Acetate] please.
Response: > 10000 µg/mL

----------
- protocol: Solubility screening of veldoreotide acetate (10 mg, incremental volumes of medium, USP definition)
- Assay type: physicochemical
- condition.set: PBS, pH 7.2, 10 mg in PBS pH 7.2; read-out: 0.01 ml Very soluble (1 g/ml)
measured.parameter: solubility

Request: Report solubility for C[C@@H](O)[C@@H]1NC(=O)[C@H](CCCCN)NC(=O)[C@@H](Cc2c[nH]c3ccccc23)NC(=O)[C@H](Cc2c[nH]c3ccccc23)NC(=O)[C@H](Cc2ccccc2)NC(=O)CCCNC(=O)CCCN(CC(N)=O)C(=O)[C@H](Cc2ccccc2)NC1=O [Veldoreotide Acetate] please.
Response: < 1000 mg/mL

----------
- protocol: Solubility of COR005 acetate in aqueous media with additives at 25° C.
- Assay type: physicochemical
- condition.set: isotonic saline, Saline Isotonic; HPB:PEP 15:1; read-out: Solubility of COR005 Acetate (mg/ml) at 25° C.
measured.parameter: solubility (mg/mL)
One number for each entry, in mg/mL.

Request: Report solubility for C[C@@H](O)[C@@H]1NC(=O)[C@H](CCCCN)NC(=O)[C@@H](Cc2c[nH]c3ccccc23)NC(=O)[C@H](Cc2c[nH]c3ccccc23)NC(=O)[C@H](Cc2ccccc2)NC(=O)CCCNC(=O)CCCN(CC(N)=O)C(=O)[C@H](Cc2ccccc2)NC1=O [Veldoreotide Acetate] please.
Response: 10

----------
- protocol: Solubility screening of veldoreotide acetate (10 mg, incremental volumes of medium, USP definition)
- Assay type: physicochemical
- condition.set: 10% EtOH (95%) in olive oil (or cottonseed oil), 10 ml Slightly soluble (0.001 g/ml; 1 mg/ml), 10 mg in 10% EtOH (95%) in olive oil (or cottonseed oil)
measured.parameter: solubility

Request: Report solubility for C[C@@H](O)[C@@H]1NC(=O)[C@H](CCCCN)NC(=O)[C@@H](Cc2c[nH]c3ccccc23)NC(=O)[C@H](Cc2c[nH]c3ccccc23)NC(=O)[C@H](Cc2ccccc2)NC(=O)CCCNC(=O)CCCN(CC(N)=O)C(=O)[C@H](Cc2ccccc2)NC1=O [Veldoreotide Acetate] please.
Response: > 1000 µg/mL

----------
- protocol: Pharmacokinetics of IR formulations in minipigs
- Format: in vivo
- condition.set: minipig, plasma, sc, 0.4 mg/kg, IR, SC, 0.4 mg/Kg; DEX:PEP 5:1 saline
measured.parameter: Cmax (ng/mL)
Numbers only, in ng/mL.

Request: Report Cmax for C[C@@H](O)[C@@H]1NC(=O)[C@H](CCCCN)NC(=O)[C@@H](Cc2c[nH]c3ccccc23)NC(=O)[C@H](Cc2c[nH]c3ccccc23)NC(=O)[C@H](Cc2ccccc2)NC(=O)CCCNC(=O)CCCN(CC(N)=O)C(=O)[C@H](Cc2ccccc2)NC1=O [Veldoreotide] please.
Response: 238

----------
- protocol: Solubility screening of veldoreotide acetate (10 mg, incremental volumes of medium, USP definition)
- Type: physicochemical
- condition.set: 0.1% TFA, 10 mg in 0.1% TFA; read-out: 1 ml Sparingly soluble (0.01 g/ml; 10 mg/ml)
measured.parameter: solubility

Request: Report solubility for C[C@@H](O)[C@@H]1NC(=O)[C@H](CCCCN)NC(=O)[C@@H](Cc2c[nH]c3ccccc23)NC(=O)[C@H](Cc2c[nH]c3ccccc23)NC(=O)[C@H](Cc2ccccc2)NC(=O)CCCNC(=O)CCCN(CC(N)=O)C(=O)[C@H](Cc2ccccc2)NC1=O [Veldoreotide Acetate] please.
Response: > 10000 µg/mL

----------
- protocol: Quantitative assessment of veldoreotide acetate solubility by HPLC
- Format: physicochemical
- condition.set: 20 mM phosphate buffer; 20 mM Phosphate (10 mM Na2HPO4 + 10 mM NaH2PO4), pH 7.2; read-out: Solubility (g/liter) - HPLC
measured.parameter: solubility (g/L)
Give bare numbers, in g/L.

Request: Report solubility for C[C@@H](O)[C@@H]1NC(=O)[C@H](CCCCN)NC(=O)[C@@H](Cc2c[nH]c3ccccc23)NC(=O)[C@H](Cc2c[nH]c3ccccc23)NC(=O)[C@H](Cc2ccccc2)NC(=O)CCCNC(=O)CCCN(CC(N)=O)C(=O)[C@H](Cc2ccccc2)NC1=O [Veldoreotide Acetate] please.
Response: 212

----------
- protocol: in vivo
- Set-up: species or system rats
- condition.set: Sprague-Dawley, rat, sc, pH 4, Rats Cmax (ng/ml)
measured.parameter: Cmax
The reply must contain the numeric value and, after it, the unit.

Request: Report Cmax for C[C@@H](O)[C@@H]1NC(=O)[C@H](CCCCN)NC(=O)[C@@H](Cc2c[nH]c3ccccc23)NC(=O)[C@H](Cc2c[nH]c3ccccc23)NC(=O)[C@H](Cc2ccccc2)NC(=O)CCCNC(=O)CCCN(CC(N)=O)C(=O)[C@H](Cc2ccccc2)NC1=O [Veldoreotide Acetate] please.
Response: 350 ng/mL

----------
- protocol: Solubility screening of veldoreotide acetate (10 mg, incremental volumes of medium, USP definition)
- Format: physicochemical
- condition.set: 0.9N HCl, 0.1 ml Freely soluble (0.1 g/ml), 10 mg in 0.9N HCL
- Excerpt: The solubility of veldoreotide acetate in aqueous media was screened by the following method. […] Following the results of the screening studies, several media were selected for verification studies based on quantitative assessment of the peptide concentration by HPLC (maximal solubility). […]
measured.parameter: solubility

Request: Report solubility for C[C@@H](O)[C@@H]1NC(=O)[C@H](CCCCN)NC(=O)[C@@H](Cc2c[nH]c3ccccc23)NC(=O)[C@H](Cc2c[nH]c3ccccc23)NC(=O)[C@H](Cc2ccccc2)NC(=O)CCCNC(=O)CCCN(CC(N)=O)C(=O)[C@H](Cc2ccccc2)NC1=O [Veldoreotide Acetate] please.
Response: < 100 mg/mL

From: patent US10398751B2
